Target: T1, human CD19 (human, UniProt P15391 20-556)
T1 construct: whole, on cells; also called Cluster of Differentiation 19; hPro1
T1 sequence (looked up): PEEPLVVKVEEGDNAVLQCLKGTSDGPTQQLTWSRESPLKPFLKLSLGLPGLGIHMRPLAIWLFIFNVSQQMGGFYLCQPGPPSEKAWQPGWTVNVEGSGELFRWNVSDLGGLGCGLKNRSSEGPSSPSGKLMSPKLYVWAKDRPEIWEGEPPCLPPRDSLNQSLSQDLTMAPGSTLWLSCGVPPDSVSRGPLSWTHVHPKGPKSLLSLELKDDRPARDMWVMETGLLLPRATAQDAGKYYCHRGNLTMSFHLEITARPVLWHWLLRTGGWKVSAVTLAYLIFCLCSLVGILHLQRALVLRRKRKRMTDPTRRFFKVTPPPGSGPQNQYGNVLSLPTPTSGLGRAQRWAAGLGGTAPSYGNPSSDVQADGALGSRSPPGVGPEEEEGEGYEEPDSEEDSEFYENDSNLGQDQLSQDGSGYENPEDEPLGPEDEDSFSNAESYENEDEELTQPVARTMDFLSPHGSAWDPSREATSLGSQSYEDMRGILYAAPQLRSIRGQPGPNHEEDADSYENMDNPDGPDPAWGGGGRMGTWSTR
Assay: flow cytometry on Ramos cells
Each entry below lists one item and its recorded EC50 value.
All answers are understood in pM, so give the number only.

Record excerpt, results attached:
Binder: WBP7011_4.202.9 (antibody, mouse IgG2a, V domains shown, also called W7011-4.202.9) VH: EIQLQQSGPELVKPGASVKVSCKASGYAFTSYNMYWVKQSHGKSLEWIGYIDPYNGDTTYNQKFKGKATLTVDKSSSTAYMHLNSLTSEDSAVYYCLTTAYAMDYWGQGTSVTVSS VL: QIVLTQSPAIMSASLGEEITLTCSASSTVNYMHWYQQKSGTSPKLLIYSTSNLASGVPSRFSGSGSGTFYSLTIRSVEAEDAADYYCHQWSSYPYTFGGGTKLEIK
Endpoint: EC50
Number: 640
//
Binder: WBP7011_4.108.3 (antibody, V domains shown, also called W7011-4.108.3) VH: EVQLQQSGPELVKPGASVEMSCKASGYTFTSYVIHWLKQKPGQGLEWIGYINPYNDGAEYNEKFKGKATLTSDKSSSTAYMDLNSLTSEDSAVYYCARGPYYYGSSPFDYWGQGTTLTVSS VL: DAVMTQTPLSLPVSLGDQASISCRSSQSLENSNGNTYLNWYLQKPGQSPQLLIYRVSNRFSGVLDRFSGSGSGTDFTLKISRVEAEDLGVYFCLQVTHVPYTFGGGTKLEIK
Endpoint: EC50
Number: 190

What value of EC50 has been recorded for this entry: WBP7011_4.191.6 (antibody, mouse IgG1, V domains shown, Mouse monoclonal from hybridoma; isotype printed only for the sister subclone 4.191.3 (mouse IgG1, kappa); also called W7011-4.191.6) VH: EVQLLQSGPELVKPGASVKMSCKASGYTFTDYVIHWVKQRPGQGLEWIGYINPYNDGSEYSEKFKGKATLTSDKSSSTAYMELSSLTSEDSAVYYCARGPYYYGGSPFDYWGQGTTLTVSS VL: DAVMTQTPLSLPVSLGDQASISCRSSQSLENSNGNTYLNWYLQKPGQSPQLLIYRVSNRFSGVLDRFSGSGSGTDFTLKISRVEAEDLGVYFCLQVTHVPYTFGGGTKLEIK
70
